- System: morningglory
- METHOD_NOTES: Test B pre-/postemergence herbicide test
- Format: in vivo, Ipomoea coccinea
- TEST_CONDITIONS: postemergence, 125 g ai/ha; visual rating, scale 0 (no effect) to 100 (complete control)
ASSAY_ENDPOINT: Morningglory plant response rating
Give your answer as a number; write no unit.

chemical_smiles=CCn1nc(C(C)(C)C)cc1C(=O)Nc1cccc(C(=O)NCC(C)C)c1 obs_value=20
chemical_smiles=CC(=NO)c1cccc(NC(=O)c2cn(C(C)C)nc2C)c1 obs_value=0

Tell me the measured Morningglory plant response rating of CCCn1nc(C(C)(C)C)cc1C(=O)Nc1cccc(C(C)=NO)c1 , please.
20

Lookup CCNC(=O)c1cc(NC(=O)c2cc(C(C)(C)C)nn2CC)c(F)cc1F
20

Lookup CC(C)(C)c1cc(C(=O)Nc2cccc(SC(F)(F)F)c2)n(CCF)n1
60

Entry source: patent US20060069132A1
